Reference source for all entries: patent US7803930B2

# Test system: human apolipoprotein B mRNA
# METHOD_NOTES: Inhibition of human apolipoprotein B mRNA levels in HepG2 cells, quantitative real-time PCR
# Format: cell-based
# MEASUREMENT_CONTEXT: Table 15; HepG2 cells, 150 nM; averages from two experiments
In the oligonucleotide strings, read from the 5' end, every base follows the letter of its sugar. An asterisk marks phosphorothioate; unmarked linkages are phosphodiester. Other units and linkages are bracketed, terminal groups are in braces. A string of capitals states the bases alone. e = 2'-O-(2-methoxyethyl) (MOE); [5mC] = 5-methylcytosine; d = 2'-deoxy (DNA)
Below: a set of entries, each annotated with reported % INHIB.

SUBSTANCE	UNIT_TAG	% INHIB
301227 (antisense eT*eA*eT*eT*e[5mC]*dT*dG*dT*dT*dA*d[5mC]*dT*dT*dA*dA*eA*eT*e[5mC]*eA*e[5mC]) [compound 301227]	%	23
301221 (antisense e[5mC]*eT*eA*eG*eA*dG*dG*dT*dT*dT*dT*dG*d[5mC]*dT*dG*eT*eG*e[5mC]*e[5mC]*eA) [compound 301221]	%	61
301226 (antisense e[5mC]*eT*eT*eA*eA*dA*dT*d[5mC]*dA*d[5mC]*dA*d[5mC]*dT*dA*dT*eG*eT*eG*eT*eT) [compound 301226]	%	39
301222 (antisense eT*e[5mC]*eT*eA*eG*dA*dG*dG*dT*dT*dT*dT*dG*d[5mC]*dT*eG*eT*eG*e[5mC]*e[5mC]) [compound 301222]	%	14
301218 (antisense eA*e[5mC]*eA*eT*eT*dT*dT*dA*dT*d[5mC]*dA*dA*dT*dG*d[5mC]*e[5mC]*e[5mC]*eT*e[5mC]*eG) [compound 301218]	%	23
301223 (antisense eA*eA*eT*e[5mC]*eA*d[5mC]*dA*d[5mC]*dT*dA*dT*dG*dT*dG*dT*eT*e[5mC]*eT*eA*eG) [compound 301223]	%	26
301224 (antisense eA*eA*eA*eT*e[5mC]*dA*d[5mC]*dA*d[5mC]*dT*dA*dT*dG*dT*dG*eT*eT*e[5mC]*eT*eA) [compound 301224]	%	33
301225 (antisense eT*eA*eA*eA*eT*d[5mC]*dA*d[5mC]*dA*d[5mC]*dT*dA*dT*dG*dT*eG*eT*eT*e[5mC]*eT) [compound 301225]	%	3
301219 (antisense eG*e[5mC]*e[5mC]*eA*eG*dA*dA*d[5mC]*dA*dT*dT*dT*dT*dA*dT*e[5mC]*eA*eA*eT*eG) [compound 301219]	%	35
301220 (antisense eA*eG*eA*eG*eG*dT*dT*dT*dT*dG*d[5mC]*dT*dG*dT*dG*e[5mC]*e[5mC]*eA*eG*eA) [compound 301220]	%	51

----------
# System: human apolipoprotein B mRNA
# METHOD_NOTES: Inhibition of human apolipoprotein B mRNA levels in HepG2 cells, quantitative real-time PCR
# Format: cell-based
# MEASUREMENT_CONTEXT: HepG2 cells treated with 150 nM of compound; averages from two experiments; quantitative real-time PCR
In the oligonucleotide strings, read from the 5' end, every base follows the letter of its sugar. An asterisk marks phosphorothioate; unmarked linkages are phosphodiester. Other units and linkages are bracketed, terminal groups are in braces. A string of capitals states the bases alone. e = 2'-O-(2-methoxyethyl) (MOE); [5mC] = 5-methylcytosine; d = 2'-deoxy (DNA)
Classify as follows. Reported % INHIB (inhibition of human apolipoprotein B mRNA levels) greater than or equal to 60%: class 1. Reported % INHIB (inhibition of human apolipoprotein B mRNA levels) below: class 0.

SUBSTANCE	CATEGORY
271015 (antisense eT*eG*eT*eG*eT*dT*d[5mC]*d[5mC]*d[5mC]*dT*dG*dA*dA*dG*d[5mC]*eG*eG*e[5mC]*e[5mC]*eA) [compound 271015]	class 0
270987 (antisense e[5mC]*e[5mC]*eT*e[5mC]*e[5mC]*dA*dG*d[5mC]*dT*d[5mC]*dA*dA*d[5mC]*d[5mC]*dT*eT*eG*e[5mC]*eA*eG) [compound 270987]	class 0
271036 (eA*eA*eG*eA*eG*dG*d[5mC]*d[5mC]*d[5mC]*dT*d[5mC]*dT*dA*dG*d[5mC]*eT*eG*eT*eA*eA; antisense) [compound 271036]	class 1
271016 (antisense eA*e[5mC]*e[5mC]*e[5mC]*eA*dG*dA*dA*dT*d[5mC]*dA*dT*dG*dG*d[5mC]*e[5mC]*eT*eG*eA*eT) [compound 271016]	class 0
271026 (eG*eA*e[5mC]*eT*e[5mC]*d[5mC]*dT*dT*d[5mC]*dA*dG*dA*dG*d[5mC]*d[5mC]*eA*eG*e[5mC]*eG*eG; antisense) [compound 271026]	class 0
281611 (antisense e[5mC]*eT*eG*eT*e[5mC]*d[5mC]*dT*d[5mC]*dT*d[5mC]*dT*d[5mC]*dT*dG*dG*eA*eG*e[5mC]*eT*e[5mC]) [compound 281611]	class 1
301027 (eG*e[5mC]*eT*e[5mC]*eA*d[5mC]*dT*dG*dT*dA*dT*dG*dG*dT*dT*eT*eT*eA*eT*e[5mC]; antisense) [compound 301027]	class 1
271012 (antisense e[5mC]*e[5mC]*e[5mC]*eA*e[5mC]*dA*dG*dA*d[5mC]*dT*dT*dG*dA*dA*dG*eT*eG*eG*eA*eG) [compound 271012]	class 0
281614 (antisense eT*eA*eA*eG*e[5mC]*dT*dG*dT*dA*dG*d[5mC]*dA*dG*dA*dT*eG*eA*eG*eT*e[5mC]) [compound 281614]	class 1
271042 (eA*eG*eT*eT*eT*d[5mC]*d[5mC]*dT*d[5mC]*dA*dT*d[5mC]*dA*dG*dA*eT*eT*e[5mC]*e[5mC]*e[5mC]; antisense) [compound 271042]	class 0
301028 (eG*eG*e[5mC]*eT*e[5mC]*dA*d[5mC]*dT*dG*dT*dA*dT*dG*dG*dT*eT*eT*eT*eA*eT; antisense) [compound 301028]	class 1
